Target: human orexin-2 receptor (OX2R) (Homo sapiens)
Sequence (O43614 whole entry): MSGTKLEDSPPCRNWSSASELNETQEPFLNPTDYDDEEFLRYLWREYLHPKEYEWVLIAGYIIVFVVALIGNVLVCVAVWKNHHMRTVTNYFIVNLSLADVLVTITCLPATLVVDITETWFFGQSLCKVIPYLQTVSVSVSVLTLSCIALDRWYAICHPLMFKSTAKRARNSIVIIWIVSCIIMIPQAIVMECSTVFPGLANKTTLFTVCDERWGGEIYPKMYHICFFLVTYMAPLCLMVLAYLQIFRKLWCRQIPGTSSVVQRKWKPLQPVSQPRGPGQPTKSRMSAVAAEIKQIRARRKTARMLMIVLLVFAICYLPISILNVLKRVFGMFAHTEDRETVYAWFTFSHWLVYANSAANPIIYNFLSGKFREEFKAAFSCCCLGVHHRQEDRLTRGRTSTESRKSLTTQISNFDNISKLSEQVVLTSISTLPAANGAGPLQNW
Test: Human OX2R IP1 assay
Settings: T-Rex CHO cells stably overexpressing human OX2R; IP1 (inositol monophosphate) accumulation, HTRF; 1 hr at 37 degrees C
Method: T-Rex CHO cells stably overexpressing the human orexin-2 receptor (OX2R) are induced overnight with 1 μg/mL of doxycycline in a T225 flask. 24 hours post induction, cells are lifted with accutase and plated into a 384-well proxy plate at 30,000 cells/well. […] The plates are allowed to incubate for 1 hour at room temperature and are then read in the En Vision® multimode plate reader, measuring inositol phosphate levels. […]
pEC50: −log10 of the molar value.
value.kind: pEC50

See these solved cases before continuing.
molecule: CN(C)S(=O)(=O)N[C@H]1CCN(C(=O)N2CC(F)(F)C2)C[C@H]1CO[C@H]1CC[C@@H](c2cccc(F)c2)CC1 [Compound 62]
test.value: > 7.00
--
molecule: O=C(NC1CCN(c2cccnn2)CC1CO[C@H]1CC[C@@H](c2cccc(F)c2)CC1)C(F)(F)F (stereo partly shown) [Compound 67]
test.value: < 6.00
--
molecule: CN(C)S(=O)(=O)N[C@H]1CCN(C(=O)C2CNC(=O)C2)C[C@H]1CO[C@H]1CC[C@@H](c2cccc(F)c2)CC1 (stereo partly shown) [Compound 52]
test.value: < 6.00
--
molecule: O=S(=O)(NC1CC1)N[C@H]1CCN(c2cccnn2)C[C@H]1CO[C@H]1CC[C@@H](c2cccc(F)c2)CC1 [Compound 17]
test.value: 6.00 to 7.00
--
molecule: CN(C)S(=O)(=O)N[C@H]1CCN(C(=O)OCC2(F)CC2)C[C@H]1CO[C@H]1CC[C@@H](c2cccc(F)c2)CC1 [Compound 58]
test.value: < 6.00

Ask: // map CN(CCF)S(=O)(=O)N[C@H]1CCN(c2cccnn2)C[C@H]1CO[C@H]1CC[C@@H](c2cccc(F)c2)CC1 [Compound 64] to recorded pEC50 (system: human orexin-2 receptor (OX2R) (Homo sapiens))
Reply: < 6.00

Ask: Record: CN1CCN(S(=O)(=O)N[C@H]2CCN(c3cccnn3)C[C@H]2CO[C@H]2CC[C@@H](c3cccc(F)c3)CC2)CC1 [Compound 24]
Reply: < 6.00
